Task for the reader: assign each of the following molecules its reported AC50.
- TESTED TARGET: human PAH with the R408W mutation (Homo sapiens, UniProt P00439, R408W)
- Construct: expressed in transfected cells
- Sequence (P00439 1-452 R408W): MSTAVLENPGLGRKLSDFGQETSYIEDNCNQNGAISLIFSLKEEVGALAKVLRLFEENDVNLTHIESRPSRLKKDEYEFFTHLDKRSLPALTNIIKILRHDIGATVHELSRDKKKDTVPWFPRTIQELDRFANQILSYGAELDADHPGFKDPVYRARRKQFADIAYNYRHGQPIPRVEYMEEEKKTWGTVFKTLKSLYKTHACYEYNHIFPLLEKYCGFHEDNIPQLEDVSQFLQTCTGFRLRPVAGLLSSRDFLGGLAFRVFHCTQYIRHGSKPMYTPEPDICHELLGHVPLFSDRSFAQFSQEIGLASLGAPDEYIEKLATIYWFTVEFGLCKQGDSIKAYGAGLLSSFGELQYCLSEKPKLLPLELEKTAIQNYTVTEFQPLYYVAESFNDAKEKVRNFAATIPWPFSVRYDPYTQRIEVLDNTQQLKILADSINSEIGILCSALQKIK
- ASSAY PROTOCOL: Cell Based Phenylalanine Flux Assay;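 also: Ten-point dose curve from 2-fold serial dilutions, run in duplicate at 0.5% DMSO final, tracer step used 20 µM sepiapterin and 800 µM labeled phenylalanine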
- ASSAY CONDITIONS: A375 cells expressing R408W PAH; 24 hrs with compound, then 20 μM sepiapterin and 800 μM 13C9,15N-Phenylalanine for 4 hours; 13C-Tyrosine in media by LC-MS; average where tested multiple times; read-out: AC50

>>> reading("Cc1n[nH]cc1-c1nnc(C(=O)N2CCc3[nH]cnc3[C@H]2c2cc3c(C)cccn3n2)o1 (single isomer, unassigned)")
"1 to 5 µM"
>>> reading("Nc1cnc(N2CCc3[nH]cnc3C2c2cc3cccc(C(F)F)n3n2)nc1 (centres unmarked)")
"> 5 µM"
>>> reading("c1cc(C2CC2)c2cc([C@@H]3c4nc[nH]c4CCN3c3nnc(-c4ccncn4)o3)nn2c1 (single isomer, unassigned)")
"1 to 5 µM"
>>> reading("Cc1cccc2cc([C@@H]3c4nc[nH]c4CCN3C(=O)c3nnc(C(C)(C)O)o3)nn12 (single isomer, unassigned)")
"1 to 5 µM"
>>> reading("Cc1cccn2nc([C@@H]3c4nc[nH]c4CCN3c3nnc(C(=O)N(C)C)o3)cc12 (single isomer, unassigned)")
"1 to 5 µM"

I need AC50 for every entry listed below, if you could help.
1. FC(F)(F)c1ccc(N2CCc3[nH]cnc3C2c2cc3cccc(C(F)(F)F)n3n2)nc1 (single isomer, unassigned) [4S enantiomer of 5-(trifluoromethyl)-2-[4-[7-(trifluoromethy]
2. COc1cccn2nc([C@@H]3c4nc[nH]c4CCN3c3nnc(-c4ccccn4)o3)cc12 (single isomer, unassigned)
3. Cn1nc(C(C)(C)C)cc1C(=O)N1CCc2[nH]cnc2[C@@H]1c1cc2c(F)cccn2n1 (single isomer, unassigned)
4. Cc1nnc(C(=O)N2CCc3[nH]cnc3C2c2nn3ccccc3c2C)o1 (single isomer, unassigned)
5. COCc1ccc2c(C(=O)N3CCc4[nH]cnc4C3c3cc4cccc(F)n4n3)cnn2c1 (centres unmarked)

OUT:
["1 to 5 µM", "1 to 5 µM", "> 5 µM", "1 to 5 µM", "1 to 5 µM"]

IN: Could you share which AC50 value was measured for Cc1c(-c2ncc(C(=O)N3CCc4[nH]cnc4[C@H]3c3cc4ccccn4n3)o2)cnn1C (single isomer, unassigned) ?
OUT: 1 to 5 µM
